# maps each entry to its Max %
Target: HEK cells stably transfected with tetracycline inducible hNR1 and hNR2A (Homo sapiens, UniProt Q05586+Q12879)
Construct: expressed in transfected cells; host or cells: HEK cells, stably transfected, tetracycline/doxycycline inducible
Sequence (Q12879 23-1464, other chains not shown): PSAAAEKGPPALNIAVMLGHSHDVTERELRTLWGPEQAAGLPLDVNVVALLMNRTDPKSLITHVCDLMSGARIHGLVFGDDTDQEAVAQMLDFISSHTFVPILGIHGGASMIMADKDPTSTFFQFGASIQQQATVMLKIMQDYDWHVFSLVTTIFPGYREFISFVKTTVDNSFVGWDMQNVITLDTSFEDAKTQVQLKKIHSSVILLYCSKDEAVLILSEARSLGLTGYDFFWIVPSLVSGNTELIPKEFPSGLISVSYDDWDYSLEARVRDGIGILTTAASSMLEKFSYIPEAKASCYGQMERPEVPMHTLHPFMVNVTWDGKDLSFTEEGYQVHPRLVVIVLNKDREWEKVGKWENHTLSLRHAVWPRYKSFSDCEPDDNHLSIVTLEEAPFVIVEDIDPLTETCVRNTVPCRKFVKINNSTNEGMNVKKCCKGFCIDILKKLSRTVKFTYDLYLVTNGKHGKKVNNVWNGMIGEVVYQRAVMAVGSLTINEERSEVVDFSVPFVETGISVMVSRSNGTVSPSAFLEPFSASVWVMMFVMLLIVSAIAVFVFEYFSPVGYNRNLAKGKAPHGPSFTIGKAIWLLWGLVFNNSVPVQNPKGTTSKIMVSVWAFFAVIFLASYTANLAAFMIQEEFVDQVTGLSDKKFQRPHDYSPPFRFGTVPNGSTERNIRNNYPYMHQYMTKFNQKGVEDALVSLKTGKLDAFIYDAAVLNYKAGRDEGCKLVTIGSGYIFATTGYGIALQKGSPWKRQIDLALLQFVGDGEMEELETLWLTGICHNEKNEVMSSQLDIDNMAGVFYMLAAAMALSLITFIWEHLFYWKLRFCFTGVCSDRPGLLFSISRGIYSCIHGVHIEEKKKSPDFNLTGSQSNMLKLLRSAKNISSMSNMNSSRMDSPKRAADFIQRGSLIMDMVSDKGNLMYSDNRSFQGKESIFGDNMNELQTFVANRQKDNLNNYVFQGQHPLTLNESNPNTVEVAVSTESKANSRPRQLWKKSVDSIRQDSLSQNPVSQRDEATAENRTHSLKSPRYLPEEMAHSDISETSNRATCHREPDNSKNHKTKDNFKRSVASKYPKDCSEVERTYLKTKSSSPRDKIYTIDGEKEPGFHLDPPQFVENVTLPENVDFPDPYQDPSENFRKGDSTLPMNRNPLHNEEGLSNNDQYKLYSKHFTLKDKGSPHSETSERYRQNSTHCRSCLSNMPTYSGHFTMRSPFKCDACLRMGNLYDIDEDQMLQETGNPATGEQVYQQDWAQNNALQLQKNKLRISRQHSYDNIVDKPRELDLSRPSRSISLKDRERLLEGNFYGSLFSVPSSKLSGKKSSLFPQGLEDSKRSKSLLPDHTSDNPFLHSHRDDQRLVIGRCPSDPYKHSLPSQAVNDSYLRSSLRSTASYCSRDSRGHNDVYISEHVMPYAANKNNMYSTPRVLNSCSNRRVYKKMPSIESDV
Measurement Description: Assay 1: Cell-Based Assay, cytosolic calcium response to positive allosteric modulators (with 30 μM glycine and 300 nM L-glutamate, EC30)
Run Conditions: Table 2; responses scaled relative to 100 μM L-glutamate maximal response (100%) and 0 μM L-glutamate (0%)
Description: Assay 1: Cell-Based Assay HEK cells stably transfected with tetracycline inducible hNR1 and hNR2A were seeded into clear bottom 384 well poly-D-lysine coated plates (2.5×10^4 cells per well) in Minimum Essential Media (MEM; without L-) including 7.5 μg mL^−1 doxycycline and 500 μM (+)-ketamine. The cells were incubated at 37° C. in 5% CO2 for 24 h. […] Compounds were added after a 10 second baseline read and maximum level of relative fluorescence units (RFU) was measured over a 5 min period. […]
Endpoint Name: Max % (%)

> print(dat)
                                    compound  endpoint.name  endpoint.value
 1  Cc1ccc(C#N)cc1Cc1cc(=O)n2c([C@@H]3C[C@H]3CO)c(C)sc2n1 (relative stereo) [Example 20.6]          Max %             137
 2  CCN(Cc1cc(=O)n2c(-c3cncnc3)c(C)sc2n1)c1ccc(F)c(F)c1 [Example 5.4]          Max %             172
 3  Cc1sc2nc(CN(CC(F)F)c3ccc(F)cc3)cc(=O)n2c1-c1cncnc1 [Example 5.6]          Max %             164
 4  CCC(=O)c1c(C)sc2nc(COc3ccc(F)cc3)cc(=O)n12 [Example 2.1]          Max %            51.3
 5  CCN(Cc1cc(=O)n2c(C(=O)NC)c(C)sc2n1)c1ccc(F)cc1 [Example 10.4]          Max %             186
 6  COc1ccc(C#N)cc1Cc1cc(=O)n2c([C@@H]3C[C@H]3CO)c(C)sc2n1 (relative stereo) [Example 20.10]          Max %             127
 7  CCNC(=O)c1c(C)sc2nc(Cc3cccc(F)c3F)cc(=O)n12 [Example 21.45]          Max %            49.1
 8  CCNC(=O)c1c(C)sc2nc(Cc3cc(F)cc(C#N)c3)cc(=O)n12 [Example 21.10]          Max %            70.3
 9  Cc1sc2nc(CN3c4ccc(F)cc4CC3C)cc(=O)n2c1C#N (stereo not shown) [Example 7.5]          Max %             162
10  CCNC(=O)c1c(C)sc2nc(Cc3cccc(C(F)F)c3F)cc(=O)n12 [Example 21.20]          Max %             114
11  CCNC(=O)c1c(C2CC2)sc2nc(Cc3cccc(C#N)c3F)cc(=O)n12 [Example 21.9]          Max %            90.1
12  Cc1sc2nc(Cn3ccc(C(F)(F)F)n3)cc(=O)n2c1C#N [Example 17.1]          Max %             107
13  CCN(Cc1cc(=O)n2c(F)c(C)sc2n1)c1ccc(F)cc1 [Example 11.2]          Max %             107
14  Cc1sc2nc(COc3ccc(C#N)cc3)cc(=O)n2c1[C@@H]1C[C@H]1CO (relative stereo) [Example 4.13]          Max %            72.8
15  CNC(=O)c1c(C)sc2nc(Cc3cc(Cl)cc(C#N)c3)cc(=O)n12 [Example 21.51]          Max %            75.0
16  Cc1sc2nc(COc3ccc(F)cn3)cc(=O)n2c1[C@@H]1C[C@H]1CO (relative stereo) [Example 4.9]          Max %             123
17  Cc1sc2nc(Cn3ccc(C(F)(F)F)n3)cc(=O)n2c1C(C)(C)O [Example 18.4]          Max %             127
18  CNC(=O)c1c(C)sc2nc(Cc3cccc(Cl)c3F)cc(=O)n12 [Example 21.14]          Max %             112
19  CCN(Cc1cc(=O)n2c(-c3cccs3)c(C)sc2n1)c1ccc(F)cc1 [Example 5.9]          Max %             143
20  CCN(Cc1cc(=O)n2c(-c3cccnc3F)c(C)sc2n1)c1ccc(F)cc1 [Example 5.25]          Max %             141
21  CCN(Cc1cc(=O)n2c(C(F)(F)F)c(C)sc2n1)c1ccc(F)cc1 [Example 5.38]          Max %             147
22  Cc1sc2nc(COc3ccc(F)cc3)cc(=O)n2c1C(=O)NO [Example 1.9]          Max %            99.5
23  CONC(=O)c1c(C)sc2nc(COc3ccc(F)cc3)cc(=O)n12 [Example 1.16]          Max %            56.5
24  CCN(Cc1cc(=O)n2c3c(sc2n1)CCC3CO)c1ccc(F)cc1 (single isomer, unassigned) [Example 8.4]          Max %             164
25  CCN(Cc1cc(=O)n2c(CCCOC)c(C)sc2n1)c1ccc(F)cc1 [Example 13.2]          Max %             130
26  CNC(=O)c1csc2nc(COc3ccc(F)cc3)cc(=O)n12 [Example 3.5]          Max %            65.6
27  Cc1sc2nc(CN(CCF)c3ccc(F)cc3)cc(=O)n2c1C1CC1CO (single isomer, unassigned) [Example 5.42]          Max %             162
28  CCNC(=O)c1c(C)sc2nc(Cc3cccc4ccccc34)cc(=O)n12 [Example 21.35]          Max %            77.8
